Ref: patent US20210388082A1

I'd appreciate it if you could supply kon values for the items below.
# measured on: T1, recombinant human CD79b extracellular domain protein (human, UniProt P40259 29-159)
# T1 construct: Bought protein; also called CD79b ECD; human CD79b-ECD
# T1 sequence: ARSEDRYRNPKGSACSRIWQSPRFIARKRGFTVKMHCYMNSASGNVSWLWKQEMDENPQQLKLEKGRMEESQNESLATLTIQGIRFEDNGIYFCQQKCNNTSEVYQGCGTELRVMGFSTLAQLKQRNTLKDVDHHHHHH
# assay method text: SPR (Biacore T200), antibody on CM5 chip, CD79b ECD as analyte, 25 C
Number first, unit second.

Tell me kon reported for Humanized antibody AS11254 (antibody, human IgG1, kappa, V domains shown, Humanized IgG1 / kappa) VH: QVQLVQSGAEVKKPGASVKVSCKTSGNTFTSYGINWVKQAPGQGLEWMGEIFPRSGNIYYNEKFKGRVTITADKSTSTAYMELSSLRSEDTAVYYCAKGGTGDFDYWGQGTLVTVSS VL: DVVMTQSPLSLPVTLGQPASISCRSSQNIVHSDGNTYLEWYQQRPGQSPRLLIYKVSFRLSGVPDRFSGSGSGTDFTLKISRVEAEDVGVYYCFQGSHVPWTFGGGTKVEIKR
1.53e+06 M⁻¹ s⁻¹

Tell me kon reported for recombinant human-mouse chimeric antibody 104E1 (antibody, V domains shown, also called chimeric 104E1) VH: QVQLQQSGSELARPGASVKLSCKTSGNTFTSYGINWVKQRTGQGLEWIGEIFPRSGNIYYNEKFKGKATLTADKSSSTAYMELRSLTSEDSAVYFCAKGGTGDFDYWGQGTTLTVSS VL: DVLMTQTPLSLPVSLGDQASISCRSSQNIVHSDGNTYLEWYLQKPGQSPKLLIYKVSFRLSGVPDRFSGSGSGTDFTLKIRRVEAEDLGTYYCFQGSHVPWTFGGGTKLEIK
1.62e+06 M⁻¹ s⁻¹

Tell me kon reported for Humanized antibody AS11161 (antibody, human IgG1, kappa, V domains shown, Humanized IgG1 / kappa) VH: QVQLVQSGAEVKKPGSSVKVSCKTSGNTFTSYGINWVRQAPGQGLEWMGEIFPRSGNIYYNEKFKGKVTITADKSTSTAYMELSSLRSEDTAVYYCAKGGTGDFDYWGQGTLVTVSS VL: DVVMTQSPLSLPVTLGQPASISCRSSQNIVHSDGNTYLEWYQQRPGQSPRLLIYKVSFRLSGVPDRFSGSGSGTDFTLKISRVEAEDVGVYYCFQGSHVPWTFGGGTKVEIKR
2.02e+06 M⁻¹ s⁻¹

Tell me kon reported for Humanized antibody AS11164 (antibody, human IgG1, kappa, V domains shown, Humanized IgG1 / kappa) VH: QVQLVQSGAEVKKPGSSVKVSCKTSGNTFTSYGINWVRQAPGQGLEWMGEIFPRSGNIYYNEKFKGKVTITADKSTSTAYMELSSLRSEDTAVYYCAKGGTGDFDYWGQGTLVTVSS VL: DVLMTQSPLSLPVTLGQPASISCRSSQNIVHSDGNTYLEWYQQRPGQSPKLLIYKVSFRLSGVPDRFSGSGSGTDFTLKISRVEAEDVGVYYCFQGSHVPWTFGGGTKVEIKR
1.91e+06 M⁻¹ s⁻¹
